Biological target: Carbonic anhydrase 2 (Homo sapiens, UniProt P00918)
test_readout: Kd (µM)
Number only, in µM; omit the unit.

Record NS(=O)(=O)c1c(F)c(F)c(S(=O)(=O)CCO)c(NCc2ccccc2)c1F . Reported Kd: 0.061

* * *

Reported Ka, Carbonic anhydrase 7 (Homo sapiens).
State the answer as a number, implicitly in ×10⁶ /M/s.

[[record]]
compound = "COc1ccc(CNc2c(F)c(F)c(F)c(F)c2S(N)(=O)=O)cc1"
test_readout = "Ka"
readout_value = 2.4

[[record]]
compound = "CC(C)(C)Nc1c(F)c(S(N)(=O)=O)c(F)c(F)c1S(=O)(=O)CCc1ccccc1"
test_readout = "Ka"
readout_value = 4.5


From here, focus on the item given below.
Please fill in: Ka reported for CNc1c(F)c(S(N)(=O)=O)c(F)c(F)c1S(=O)(=O)CCc1ccccc1 = 5.5

* * *

Target: Carbonic anhydrase 2 (Homo sapiens)
test_readout: Ka (×10⁵ /M/s)
Give the quantity in ×10⁵ /M/s, number only.

[[record]]
compound = "Cc1ccc(S(N)(=O)=O)cc1"
readout_value = 1.4


The compound NS(=O)(=O)c1c(F)c(F)c(S(=O)(=O)CCO)c(NCc2ccccc2)c1F , tested on Carbonic anhydrase 2 (Homo sapiens), showed Ka of 7.9

* * *

Target: Carbonic anhydrase 9 (Homo sapiens)
Listed here are compounds together with their documented Kd.

# annotated cases, reported Kd shown
[[record]]
compound = "CC(C)(C)Nc1c(F)c(S(N)(=O)=O)c(F)c(F)c1S(=O)(=O)CCc1ccccc1"
test_readout = "Kd"
readout_value = "6.4 ×10⁻³ /s"

[[record]]
compound = "NS(=O)(=O)c1ccc(C(=O)Cn2cnc3ccccc32)cc1"
test_readout = "Kd"
readout_value = "5.9 ×10⁻² /s"


Summary line: CC(C)(C)c1cc(=O)[nH]c(SCC(=O)c2ccc(S(N)(=O)=O)cc2)n1 , Carbonic anhydrase 9 (Homo sapiens), reported Kd = 0.074 to 0.1 s⁻¹

Entry NS(=O)(=O)c1cccc(C(=O)Cn2cnc3ccccc32)c1 : Kd on Carbonic anhydrase 9 (Homo sapiens) = 0.4 s⁻¹

* * *

Quick record: Ka, Carbonic anhydrase 13 (Homo sapiens, UniProt Q8N1Q1).

See these solved cases before continuing.
[[record]]
compound = "CC(=O)Nc1nnc(S(N)(=O)=O)s1"
test_readout = "Ka"
readout_value = "4.1 ×10⁵ /M/s"

[[record]]
compound = "NS(=O)(=O)c1cccc(C(=O)Cn2cnc3ccccc32)c1"
test_readout = "Ka"
readout_value = "7.3 to 3500 ×10⁴ /M/s"


Attention now turns to another entry.
The recorded Ka with Carbonic anhydrase 13 (Homo sapiens, UniProt Q8N1Q1) for NS(=O)(=O)c1c(F)c(F)c(N2CCCCC2)c(F)c1F was 1.2 ×10⁷ /M/s

* * *

Parameter 'readout' = Ka; parameter 'system' = Carbonic anhydrase 7 (Homo sapiens, UniProt P43166).
Sequence (P43166 whole entry): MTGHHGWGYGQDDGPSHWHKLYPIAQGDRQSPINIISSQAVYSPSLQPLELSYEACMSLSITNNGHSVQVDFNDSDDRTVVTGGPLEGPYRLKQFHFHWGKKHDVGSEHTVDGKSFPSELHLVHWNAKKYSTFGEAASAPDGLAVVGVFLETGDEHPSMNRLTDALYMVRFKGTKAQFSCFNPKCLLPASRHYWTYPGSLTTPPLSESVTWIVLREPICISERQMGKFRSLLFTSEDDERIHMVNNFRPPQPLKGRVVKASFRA
# output: bare number, implied unit ×10⁷ /M/s

Example molecules with recorded Ka:
[[record]]
compound = "NS(=O)(=O)c1cc(C(=O)Cn2c(Cc3ccccc3)nc3ccccc32)ccc1Cl"
test_readout = "Ka"
readout_value = 2.6

[[record]]
compound = "NS(=O)(=O)c1cc(C(=O)Cn2cnc3ccccc32)ccc1Cl"
test_readout = "Ka"
readout_value = 2.1


Sure, the documented Ka for NS(=O)(=O)c1ccc(C(=O)Cn2cnc3ccccc32)cc1Cl is 5.2
